B1: CPEB3 Ribozyme (parent)
chain: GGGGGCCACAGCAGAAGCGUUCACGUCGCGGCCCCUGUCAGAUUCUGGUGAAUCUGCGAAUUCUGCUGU

Variants of: B1
ASSAY_METHOD_TEXT: self-cleavage, relative activity (ratio to wild type); higher = more cleavage; co-transcriptional
REPORTED_METRIC: self-cleavage
Just the number, please.

Record excerpt, results attached:
Exam item: For the variant A8U U61C , what self-cleavage is on record?
Marked response: 0.808

Exam item: How about this variant: G56A C63A
Marked response: 0.648

Exam item: How about this variant: U46A A60U
Marked response: 0.556

New cases:
Exam item: For the variant G41C C63G , what self-cleavage is on record?
Marked response: 0.382

Exam item: How about this variant: C39A G68A
Marked response: 0.925

Exam item: How about this variant: G37U C54U
Marked response: 0.332

Exam item: How about this variant: C18U C33A
Marked response: 0.278

Exam item: How about this variant: C22A U44C
Marked response: 0.217

Exam item: How about this variant: C35A U69G
Marked response: 0.356

Exam item: How about this variant: C6A G41C
Marked response: 0.192

Exam item: How about this variant: A40U A52U
Marked response: 0.477

Exam item: How about this variant: C7U C35A
Marked response: 0.194

Exam item: How about this variant: G2A G25A
Marked response: 0.0813

Exam item: How about this variant: G47C U55G
Marked response: 0.931

Exam item: How about this variant: A10C A42C
Marked response: 0.961

Exam item: How about this variant: G3C U49A
Marked response: 0.168

Exam item: How about this variant: A40C G41U
Marked response: 0.22

Exam item: How about this variant: C7U C34U
Marked response: 0.969

Exam item: How about this variant: A15G C24G
Marked response: 0.405

Exam item: How about this variant: A51C G56C
Marked response: 0.57

Exam item: How about this variant: C7G G56U
Marked response: 0.177

Exam item: How about this variant: G2U C18U
Marked response: 0.0941

Exam item: How about this variant: A10C A23G
Marked response: 0.94

Exam item: How about this variant: U62A G65U
Marked response: 0.717

Exam item: How about this variant: G3C A23U
Marked response: 0.28
